# Target or test system: ERAP1 (Homo sapiens)
# Sequence (Q9NZ08 whole entry): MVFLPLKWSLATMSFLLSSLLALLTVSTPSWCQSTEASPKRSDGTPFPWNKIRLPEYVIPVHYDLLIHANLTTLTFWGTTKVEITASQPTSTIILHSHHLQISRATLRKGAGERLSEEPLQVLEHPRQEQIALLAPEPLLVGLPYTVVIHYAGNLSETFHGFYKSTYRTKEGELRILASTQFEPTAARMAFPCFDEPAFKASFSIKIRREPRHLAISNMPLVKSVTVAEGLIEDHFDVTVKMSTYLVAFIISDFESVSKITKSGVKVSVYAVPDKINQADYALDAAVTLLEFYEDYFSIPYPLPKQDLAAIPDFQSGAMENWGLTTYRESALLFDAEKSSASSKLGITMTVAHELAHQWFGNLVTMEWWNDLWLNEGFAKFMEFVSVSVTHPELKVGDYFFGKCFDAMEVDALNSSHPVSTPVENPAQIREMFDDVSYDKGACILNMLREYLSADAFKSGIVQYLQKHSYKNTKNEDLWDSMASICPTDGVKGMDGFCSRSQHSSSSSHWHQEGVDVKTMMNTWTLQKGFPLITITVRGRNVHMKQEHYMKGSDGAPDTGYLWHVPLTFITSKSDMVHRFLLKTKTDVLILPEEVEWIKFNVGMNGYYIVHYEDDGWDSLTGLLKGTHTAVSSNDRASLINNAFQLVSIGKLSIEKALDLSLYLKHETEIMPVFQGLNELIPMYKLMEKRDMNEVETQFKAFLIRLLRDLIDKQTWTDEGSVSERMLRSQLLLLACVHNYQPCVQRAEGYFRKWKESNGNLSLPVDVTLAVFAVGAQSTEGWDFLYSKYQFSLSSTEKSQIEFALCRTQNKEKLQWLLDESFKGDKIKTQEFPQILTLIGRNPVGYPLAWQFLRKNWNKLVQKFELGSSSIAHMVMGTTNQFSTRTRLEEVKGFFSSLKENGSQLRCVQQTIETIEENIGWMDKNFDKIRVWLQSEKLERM
# Assay notes: Test of trimming of N-terminal amino acid by ERAP1 (Experimental Example 10, Examples 85-103)
# Type: biochemical
# Measurement conditions: MAGE-A10 254-262 peptide obtained by ERAP1 trimming; from HPLC AUC
Measure name: formation rate of GLYDGMEHL (SEQ ID NO: 19) (%)

# count of solved cases: 6
INSERT INTO assay_data (substance, observed_value) VALUES
  ('H-SCGLYDGMEHL-OH [Example 87]', 22.2),
  ('H-ECGLYDGMEHL-OH [Example 96]', 2.9),
  ('H-NCGLYDGMEHL-OH [Example 94]', 18.2),
  ('H-VCGLYDGMEHL-OH [Example 91]', 2.4),
  ('H-GCGLYDGMEHL-OH [Example 97]', 10.4),
  ('H-ICGLYDGMEHL-OH [Example 99]', 0.0);

A. H-YCGLYDGMEHL-OH [Example 90]
B. H-WCGLYDGMEHL-OH [Example 89]
C. H-QCGLYDGMEHL-OH [Example 85]
Lookup: With regard to formation rate of GLYDGMEHL (SEQ ID NO: 19), arrange the entries in ascending order, please. Sort and list the labels as requested.
Found: B, C, A

I. H-ACGLYDGMEHL-OH [Example 92]
II. H-HCGLYDGMEHL-OH [Example 98]
III. H-DCGLYDGMEHL-OH [Example 95]
IV. H-PCGLYDGMEHL-OH [Example 86]
Lookup: List from greatest to least formation rate of GLYDGMEHL (SEQ ID NO: 19). Sort and list the labels as requested.
Found: IV, I, III, II
(IV: 19.2%, I: 5.2%, III: 3.2%, II: 0.0%)

1. H-MCGLYDGMEHL-OH [Example 102]
2. H-KCGLYDGMEHL-OH [Example 101]
3. H-FCGLYDGMEHL-OH [Example 103]
Lookup: List from greatest to least formation rate of GLYDGMEHL (SEQ ID NO: 19). Sort and list the labels as requested.
Found: 3, 1, 2
